So I've got a bunch of molecules here, and I need their z-score values.
Experiment: splicing luciferase reporter signal modulators, primary screen, spliceosome inhibition project, cell-based, HEK293, splice +/- reporter (AID 1101);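 note: HEK293 cells carrying a splicing-competent luciferase reporter gene; test concentration not given here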
Settings: luminescence, 24 h, higher = more signal, called active from +8 up or from −8 down
One number for each entry.

Take a look at these entries with their results.
[[record]]
molecule = "O=C(C1N=C(c2ccc(OCCCO)cc2)N(c2ccccc2)O1)N1CCOCC1 (stereo unspecified)"
numeric_value = -0.799

[[record]]
molecule = "[N-]=[N+]=Nc1ccccc1C[C@]1(C(N)=O)N=C(c2ccc(OCCCO)cc2)O[C@H]1c1ccccc1"
numeric_value = 0.297


Quick request: z-score for each listed item, please.
1. O=C1OCCC/C=C\[C@H]2OC34C=CCN(Cn5nnc6ccccc65)C(=O)[C@H]3N(CCCCCCO)C(=O)[C@@H]4C12 (stereo partly specified)
2. O=C1OCCC/C=C\[C@H]2OC34C=CCN(c5ccc6ccccc6c5)C(=O)[C@H]3N(CCCCCCO)C(=O)[C@@H]4C12 (stereo partly specified)
3. CN(C)C(=O)[C@@]1(Cc2ccccc2)N=C(c2ccc(OCCCO)cc2)O[C@H]1c1ccccc1N=[N+]=[N-]
4. COCCOC(=O)N1C(=O)[C@@]2(c3cc(C#CCCO)ccc31)[C@H](C(=O)Nc1nc3ccccc3s1)[C@H]1C(=O)O[C@H](c3ccccc3)[C@H](c3ccccc3)N1[C@@H]2c1ccc(OCCO)cc1
5. COc1ccc(COC2OC[C@]3(C)[C@H]4C5=C(CN3C(=O)OC(C)(C)C)[C@H](C)C(CO)C(CO)C5CC[C@@H]24)cc1 (stereo partly specified)
6. CC(C)C[C@@H]1NC(=O)[C@H]2C[C@@H](C(=O)NCCCCCCN(C)C)[C@@H](c3ccc(O)cc3)N2C1=O
7. COCCCNC(=O)[C@@]1(Cc2ccccc2N=[N+]=[N-])N=C(c2ccc(OCCCO)cc2)O[C@H]1c1ccccc1N=[N+]=[N-]
8. [N-]=[N+]=Nc1ccccc1[C@H]1OC(c2ccc(OCCCO)cc2)=N[C@@]1(Cc1ccccc1)C(=O)O

Result string:
1: -1.57; 2: -1.39; 3: -1.26; 4: -0.021; 5: -0.807; 6: 0.561; 7: 1.87; 8: -1.23

----------
Experiment: small-molecule microarray binders of probe aShh, primary screen, biochemical, biotinylated probe, 635/667 nm fluorescence (AID 1114);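 note: probe is biotin-labelled aShh protein from a stem cell growth factor screen; measures binding of labelled protein to compounds printed on the slide; score merges feature fluorescence at 667 nm with signal-to-noise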
Details: higher = more signal
measured-endpoint: composite z-score
Numbers only.

[[record]]
molecule = "CC(C)C[C@@H]1NC(=O)[C@H]2C[C@@H](C(=O)NCCCCCCN)[C@@H](c3ccc(O)cc3)N2C1=O"
numeric_value = -0.214

[[record]]
molecule = "COc1cc(CO)cc(I)c1O[C@H]1C=C(C(=O)NCCO)C[C@@H](N(CCN2CCOCC2)C(=O)C2CCOC2)[C@@H]1O (some centres undefined)"
numeric_value = 0.0639

[[record]]
molecule = "C[C@]1(C(=O)NC2CC2)c2ccccc2C(=O)N(Cc2cc(C(F)(F)F)cc(C(F)(F)F)c2)[C@H]1c1ccc(CO)cc1"
numeric_value = -0.276


Now for another entry.
Query string: composite z-score lookup needed for "C=CCN1C(=O)[C@]2(O[C@H](CCO)[C@@H]([Si](C)(C)c3ccc(OC)cc3)[C@@H]2C)c2cc(N3C(=O)c4cccc5cccc3c45)ccc21" , thanks.
Result string: 0.0639

----------
Experiment: Plasmodium falciparum growth inhibition, primary screen, strain 3D7, DAPI fluorescence, 100 nL (AID 1184);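 note: parasites grown inside human red blood cells in medium with human serum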
Details: P. falciparum 3D7 growth, 3 d, higher = more signal
measured-endpoint: z-score
Answers are plain numbers.

[[record]]
structure_as_smiles = "COCCOC(=O)N1C(=O)[C@@]2(c3cc(C#CC4=CCCCC4)ccc31)[C@H](C(=O)Nc1nc3ccccc3s1)[C@H]1C(=O)O[C@H](c3ccccc3)[C@H](c3ccccc3)N1[C@@H]2c1ccc(OCCO)cc1"
measured_endpoint = "z-score"
numeric_value = -1.52


Batch: z-score for all items listed.
1. CC(C)C[C@@H]1NC(=O)[C@@H]2C[C@H](C(=O)NCCCCCN)[C@H](c3cccc(OCCO)c3)N2C1=O
2. CCCC[C@@H]1C[C@H]1[C@@H](NC(=O)c1ccco1)c1ccc(C(=O)OC)cc1

Result string:
[-0.0757, -0.941]

----------
Assay: small-molecule microarray binders of probe aXIP, primary screen, biochemical, NeuroSMM set, 635/667 nm fluorescence (AID 1119);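 note: probe is the protein aXip251-270 applied at 1 µg/mL to compound-printed slides; binding of probe to printed compounds measured as 667 nm fluorescence plus signal to noise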
Conditions: higher = more signal, called active from +8 up or from −8 down
Give measured composite Z-score for each item. Keep answers brief.
Give bare numbers.

[[record]]
compound = "COc1ccc([C@H]2OC[C@@H]3CC4(CC=CC4)C(=O)N32)cc1"
measured_endpoint = "composite Z-score"
numeric_value = 0.544

[[record]]
compound = "O=C1C[C@]2(c3ccc([N+](=O)[O-])cc3)C(=O)N(CCN3CCOCC3)c3cc(CO)ccc3[C@H]2N1C1CCCCC1"
measured_endpoint = "composite Z-score"
numeric_value = -0.598

[[record]]
compound = "COC(=O)[C@@]1(Cc2ccc(F)cc2)[C@H]2c3cc(C(=O)N(C)C)n(Cc4nc5ccccc5[nH]4)c3C[C@H]2CN1C(=O)c1ccccc1"
measured_endpoint = "composite Z-score"
numeric_value = 0.0895

[[record]]
compound = "C#CCN(Cc1ccccc1Br)C(/C=C/c1ccccc1)CO (stereo not given)"
measured_endpoint = "composite Z-score"
numeric_value = -0.177

[[record]]
compound = "COCCCN1C(=O)[C@@]2(Cc3ccccc31)c1ccccc1C(=O)N(Cc1ccccc1C(F)(F)F)[C@H]2c1ccc(CO)cc1"
measured_endpoint = "composite Z-score"
numeric_value = 0.225


Count: 2. Required value per item: composite Z-score.
1. CCOC(=O)C[C@H]1[C@H](OC(=O)c2cc3ccccc3oc2=O)[C@@H](NC(=O)C2CCCCC2)c2cc(OCCCO)ccc2N1C(=O)c1ccccc1
2. CC1CC/C=C\[C@H]2OC34C=CCN(C(C)(C)C)C(=O)[C@H]3N(CCCCCCO)C(=O)[C@@H]4C2C(=O)O1 (stereo not given in full)

Result string:
1: -0.275; 2: -0.358

Would you mind giving composite Z-score for every compound in the list below?
1. COc1ccc(C(O)C2C=CC3C(=O)N(C)C(=O)C3N2N2CCCCC2)c2ccccc12 (stereo not given)
2. [N-]=[N+]=NCc1ccccc1[C@@H]1OC(c2ccc(OCCCO)cc2)=N[C@]1(CCS(=O)(=O)c1ccccc1)C(=O)NCc1ccccc1
3. COc1ccc(C(O)C2C=CC3C(=O)NC(=O)C3N2Nc2ccccn2)cc1 (stereo not given)
4. CN(C)C(=O)[C@@]1(Cc2ccccc2CN=[N+]=[N-])N=C(c2ccc(OCCCO)cc2)O[C@H]1c1ccccc1
5. CN1C(=O)C2C=CC(C(O)c3ccc(I)cc3)N(N3CCCCC3)C2C1=O (stereo not given)
6. C=CCOC(=O)[C@H]1[C@@H]2C(=O)O[C@@H](c3ccccc3)[C@@H](c3ccccc3)N2[C@@H](c2ccc(OCCOC(=O)[C@@H]3C[C@@H]4C(=O)N[C@@H](CCCC[N+](C)(C)C)C(=O)N4[C@@H]3c3ccc(O)cc3)cc2)[C@]12C(=O)Nc1ccccc12

Result string:
1. 0.476
2. 0.0035
3. 0.841
4. -0.797
5. 0.891
6. 0.0848

Required: composite Z-score, one value per compound below.
1. C=CCC(OC(C)=O)[C@@H]1[C@@H](N(Cc2ccc(-c3cccc(C(F)(F)F)c3)o2)C(=O)Cc2ccc(F)cc2)c2cc(OCCCO)ccc2N1C(=O)Cc1ccc(OC)cc1 (stereo not given in full)
2. O=C1c2ccccc2[C@](Cc2ccccc2I)(C(=O)NC2CC2)[C@H](c2ccc(CO)cc2)N1C1CCCCC1

Result string:
1: -0.105; 2: 0.0542

----------
System: Neuregulin-1 EGF-like domain
Test: binders of neuregulin-1 EGF-like domain, primary screen, biochemical, small-molecule microarray, 635 nm fluorescence (AID 1081);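 note: binding of the protein to compounds printed on small-molecule microarray slides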
Details: small-molecule microarray binding, higher = more signal
Quick rule for you: composite z-score at 1 or higher means YES, lower means NO.

The examples below pair each entry with its known result.
[[record]]
molecule = "COc1ccc([Si](C)(C)[C@H]2[C@H](CCO)O[C@@]3(C(=O)N(C)c4c(Br)cc(C)cc43)[C@@H]2C)cc1"
class_name = "YES"

[[record]]
molecule = "COc1ccc(CCN2C(=O)[C@@]3(Cc4ccccc42)c2ccccc2C(=O)N(Cc2ccccc2C(F)(F)F)[C@H]3c2ccc(CO)cc2)cc1"
class_name = "NO"

[[record]]
molecule = "COC(=O)C=C(CC(O)c1cccc(Cl)c1)OC (configuration not stated)"
class_name = "YES"


Query string: Would you say C=CCC(OC(C)=O)[C@@H]1[C@@H](N(Cc2cccc3ccccc23)C(=O)c2ccc(-c3ccccc3)cc2)c2cc(OCCCO)ccc2N1C(=O)Cc1ccc(OC)cc1 (some centres not stated) shows composite z-score at minimum 1?
Result string: NO

Query string: Decide: is the reported value of composite z-score for CN1C2C=C(CCCO)C(C3C(=O)N(C(N)=O)C(=O)C32)C1c1ccc(CN2CCCC2)cc1 (configuration not stated) equal to or greater than 1?
Result string: NO

Query string: Could you tell me if the measured composite z-score of CN1C(=O)C2C=CC(C(O)C3CCCCC3)N(Nc3ccc([N+](=O)[O-])cc3[N+](=O)[O-])C2C1=O (configuration not stated) reaches 1 or more?
Result string: YES

The values you see were collected from PubChem BioAssay.
